# study_system: T1, CoV-HKU1 Spike ectodomain (HKU1-CoV, UniProt Q0ZME7 14-1276)
# T1 chain: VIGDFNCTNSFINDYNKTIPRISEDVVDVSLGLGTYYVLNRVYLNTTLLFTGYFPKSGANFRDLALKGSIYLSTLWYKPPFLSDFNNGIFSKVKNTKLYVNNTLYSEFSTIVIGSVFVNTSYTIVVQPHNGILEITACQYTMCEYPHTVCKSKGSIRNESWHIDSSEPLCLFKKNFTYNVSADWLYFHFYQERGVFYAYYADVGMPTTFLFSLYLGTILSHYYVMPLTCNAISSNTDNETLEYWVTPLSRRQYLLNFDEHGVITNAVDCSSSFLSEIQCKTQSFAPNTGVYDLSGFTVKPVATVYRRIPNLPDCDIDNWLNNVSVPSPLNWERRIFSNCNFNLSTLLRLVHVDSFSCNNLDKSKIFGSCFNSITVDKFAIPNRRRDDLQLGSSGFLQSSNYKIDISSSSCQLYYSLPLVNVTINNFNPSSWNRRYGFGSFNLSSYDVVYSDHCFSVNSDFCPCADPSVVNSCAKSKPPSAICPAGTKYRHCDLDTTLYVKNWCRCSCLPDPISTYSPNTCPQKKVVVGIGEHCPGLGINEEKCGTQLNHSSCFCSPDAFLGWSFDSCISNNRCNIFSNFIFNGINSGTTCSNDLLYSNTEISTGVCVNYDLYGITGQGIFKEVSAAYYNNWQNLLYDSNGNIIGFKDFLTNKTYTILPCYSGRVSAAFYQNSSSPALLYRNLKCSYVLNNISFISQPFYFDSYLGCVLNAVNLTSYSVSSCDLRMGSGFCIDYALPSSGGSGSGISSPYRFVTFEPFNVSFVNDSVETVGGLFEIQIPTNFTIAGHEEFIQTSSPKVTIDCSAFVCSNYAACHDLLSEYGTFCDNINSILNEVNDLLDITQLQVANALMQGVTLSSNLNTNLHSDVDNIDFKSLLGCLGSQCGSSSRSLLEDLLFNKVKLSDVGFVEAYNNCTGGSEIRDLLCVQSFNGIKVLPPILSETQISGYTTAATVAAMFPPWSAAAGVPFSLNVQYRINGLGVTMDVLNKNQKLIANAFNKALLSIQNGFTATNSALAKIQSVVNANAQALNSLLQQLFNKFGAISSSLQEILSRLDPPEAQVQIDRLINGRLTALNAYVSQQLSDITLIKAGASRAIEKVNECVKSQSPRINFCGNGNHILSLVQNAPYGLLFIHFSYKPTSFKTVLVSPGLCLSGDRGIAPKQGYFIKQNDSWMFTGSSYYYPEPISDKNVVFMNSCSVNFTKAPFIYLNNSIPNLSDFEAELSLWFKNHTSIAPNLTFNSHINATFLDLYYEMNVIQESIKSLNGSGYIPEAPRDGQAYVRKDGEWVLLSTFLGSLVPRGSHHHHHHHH
# assay_overview: ELISA, coated antigen; further: test concentration or dose not given here
measured_endpoint: ELISA OD (OD)
The response must be a number in OD with no trailing unit.

>  <binder>
Cv2.3235 (recombinant human IgG1) (antibody, V domains shown) VH: EVQLVESGGGLIQPGGSLRLSCAASGFTVSRNYMSWVRQAPGKGLEWVSVIYSGGSTFYADSVKGRFTISRDNSKNTLYLQMNSLRAEDTAVYYCARDGDYYGMDVWGQGTTVTVSS VL: DIQMTQSPSFLSASVGDRVTITCRASQGISSFLAWYQQKPGKAPKLLIYGASTLQSGVTSRFSGSGSGTEFTLTISSLQPEDFATYYCQRLDSYPPITFGQGTRLEIKR

>  <unit_of_measure>
OD

>  <ELISA OD>
0.2

$$$$

Indicate its recorded ELISA OD; the binder in question is Cv2.3194 (recombinant human IgG1) (antibody, V domains shown) VH: EVQLVESGGGLIQPGGSLRLSCAASGITVTSNYMSWVRQAPGKGLEWVSVIYPGGSTFYADSVKGRFTISRDNSKNTLYLQMNSLRAEDTAVYYCARDLVVYGMDVWGQGTTVTVSS VL: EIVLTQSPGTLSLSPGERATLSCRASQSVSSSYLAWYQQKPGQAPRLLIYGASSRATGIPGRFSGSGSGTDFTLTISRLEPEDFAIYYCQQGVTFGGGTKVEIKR
0.1

Provide only the value of recorded ELISA OD for Cv2.1353 (recombinant human IgG1) (antibody, V domains shown) VH: EVQLVESGGGLVQPGGSLRLSCAASGVTVSSNYMNWVRQAPGKGLEWVSVIYSGGSTFYADSVKGRFIISRDNSKNTLYLQMNSLKTEDTAVYYCARDLGPMGFDIWGQGTMVTVSS VL: DIQMTQSPSFLSASVGDRVTITCRASQGISSYLAWYQQKPGKAPKLLIYAASTLQSGVPSRFSGSGSGTEFTLTISSLQPEDFATYYCQQLNSDPPVTFGPGTKVDIKR
0.1

Give the measured ELISA OD for Cv2.5213 (recombinant human IgG1) (antibody, V domains shown) VH: EVQLVESGGGLIQPGGSLRLSCAASGFTVSSNYMSWVRQAPGKGLEWVSLIYSGGSTYYADSVKGRFTISRDNSKNTLYLQMNSLRAEDTAVYYCARDLNYYGMDVWGQGATVTVSS VL: DIQMTQSPSSLSASVGDRVTITCRASQGISSYLAWYQQKPGKAPKLLIYAASTLQSGVPSRFSGSGSGTDFTLTISSLQPEDFATYYCQQLDSYSPFTFGPGTKVDIKR
0.1
